# Measurement Protocol: RP, Thermo Scientific Acclaim RSLC 120 C18, 100 × 2.1 mm, 2.2 µm, 30 °C, 0.2 mL/min, estimated dead time 1.1 min; A: 90% water + 10% methanol + 0.01% formic acid + 5 mM ammonium formate, pH 3.61; B: methanol + 0.01% formic acid + 5 mM ammonium formate, pH 3.61; gradient (min/%B) 0/1 1/1 2/39 13/99.9 15/99.9 15.1/1 20.1/1
# Details: stereoisomer not certain
Measured Parameter: LC retention time (min)
# unit: min | format: bare number

Worked cases, answers included:
Nc1ccc(S(=O)(=O)Nc2cncc(Cl)n2)cc1 ... 5.45
CCCCNc1ccc(C(=O)OCCN(C)C)cc1 ... 6.43
O=C1N(CCN2CCCCC2)C(=O)C(c2ccccc2)(N2CCCCC2)C(=O)N1CCN1CCCCC1 ... 7.64
C[N+]1([O-])CCN2c3ccccc3Cc3ccccc3C2C1 (stereo not drawn) [Mianserine-N-oxide] ... 7.63
COc1ccc(C2Sc3ccccc3N(CCN(C)C)C(=O)C2O)cc1 (stereo not drawn) ... 6.41

We now examine a further molecule.
Qu. Given the entry c1coc(-c2nc3ccccc3[nH]2)c1 , report its measured LC retention time.
Ans. 6.48
